tested on: MDA-MB-231; experiment: shRNA barcode abundance ratio t_end/t_zero (depletion over 4 weeks of proliferation) (log2 ratio); higher = less depletion (weaker anti-proliferative effect of the shRNA); conditions: time after t zero 28 days
Can you tell me shRNA barcode abundance ratio t end/t zero (log2) for the items I'm about to list?
Write the number on its own, no unit after it.

So, TCAATCAAAGGGAAACTTGAA (targeted gene: TPT1) ? Its shRNA barcode abundance ratio t end/t zero (log2) was -0.105

So, CCAGGAGAACAGTTGTTAAAT (targeted gene: HIPK3) ? Its shRNA barcode abundance ratio t end/t zero (log2) was 0.228

So, GCCTTGAAACATTGATGGAAT (targeted gene: BCL2) ? Its shRNA barcode abundance ratio t end/t zero (log2) was 0.25

So, CCAATTCAAGTGATCCGCAAA (targeted gene: BAG3) ? Its shRNA barcode abundance ratio t end/t zero (log2) was 0.175

So, GGCCCATACCTTCAAATATTA (targeted gene: NFKB1) ? Its shRNA barcode abundance ratio t end/t zero (log2) was 0.381

So, CCTCACCCTGTACCAGTCCAA (targeted gene: GSTP1) ? Its shRNA barcode abundance ratio t end/t zero (log2) was -0.648

So, CCTTTGAACTTGATTGCCTAT (targeted gene: SFRP1) ? Its shRNA barcode abundance ratio t end/t zero (log2) was -0.127

So, CCTAGAAGCATTTATGATTTA (targeted gene: BCL2L2) ? Its shRNA barcode abundance ratio t end/t zero (log2) was 0.344
